target: MAL^TIR (Homo sapiens, UniProt P58753); construct: MAL (residues 79–221); 6xHis; made in house; host or cells: E. coli BL21 (DE3); assay: T‐Surf phage library (P8 and P3) selection against MAL^TIR, four rounds, NGS read counts; assay type: binding; conditions: P3 library, selection against MAL, rank after grouping
Sequence (P58753 79-221): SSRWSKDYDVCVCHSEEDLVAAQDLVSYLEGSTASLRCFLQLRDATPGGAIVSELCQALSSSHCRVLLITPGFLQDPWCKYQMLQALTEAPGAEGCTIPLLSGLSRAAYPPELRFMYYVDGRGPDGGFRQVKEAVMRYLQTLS
measure-name: P3_MAL Rank (after)

[[record]]
sequence_text = "AFCIRRLRVKALRFS"
system_name = "MAL^TIR (Homo sapiens, UniProt P58753)"
meas_value = 569

[[record]]
sequence_text = "LKVESWRQALEKAGT"
system_name = "MAL^TIR (Homo sapiens, UniProt P58753)"
meas_value = 549

[[record]]
sequence_text = "NQWRNALTAAAKLKAPI"
system_name = "MAL^TIR (Homo sapiens, UniProt P58753)"
meas_value = 522


----------
Molecular target: MyD88^TIR (Homo sapiens)
Construct: MyD88 (residues 148–296); 6xHis; made in house; host or cells: E. coli BL21 (DE3)
Sequence (Q99836 148-296): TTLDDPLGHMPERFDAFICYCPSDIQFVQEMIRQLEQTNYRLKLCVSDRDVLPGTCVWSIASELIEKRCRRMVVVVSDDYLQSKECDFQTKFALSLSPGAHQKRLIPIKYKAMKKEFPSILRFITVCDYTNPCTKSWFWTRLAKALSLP
Test: T‐Surf phage library (P8 and P3) selection against MyD88^TIR, four rounds, NGS read counts
Type: binding
Settings: P8_MyD88: rank by count before grouping
Description: T‐Surf libraries were screened against the immobilized TIR domains of two major human TLR adaptor proteins, MAL^TIR and MyD88^TIR, allowing cross‐species selection of TIR‐binding motifs with 190 946 TIR‐derived peptides in a single binding assay (Scheme 1). Enriched phage pools from the fourth round of selection were analyzed using NGS after barcoding the peptide‐coding regions of the phage pools. […]
measure-name: Rank (before)

The following sequences have reported results that may help.
[[record]]
sequence_text = "YELDFSHFSLFEGQAT"
meas_value = 1949

[[record]]
sequence_text = "DFRSHLIETFGRMFIN"
meas_value = 2370

[[record]]
sequence_text = "DWLPGRTLFENLWASV"
meas_value = 164

[[record]]
sequence_text = "GTFIDYLYHRLMEEGI"
meas_value = 113


(A) LFWANLRAALQGDLPY
(B) YAASPWWFDELVKTVR
Problem: Compare reported Rank (before) values for A and B . Which is lower? Refer to your chosen entry by its label in the reply.
Result: A

----------
target: MAL^TIR (Homo sapiens); construct: MAL (residues 79–221); 6xHis; made in house; host or cells: E. coli BL21 (DE3); assay: T‐Surf phage library (P8 and P3) selection against MAL^TIR, four rounds, NGS read counts; format: binding; settings: P8_MAL: rank by count after grouping
measure-name: Rank (after)

[[record]]
sequence_text = "RFFLESLKQLLRSDGR"
meas_value = 455

[[record]]
sequence_text = "RNIVAYPFQALANIGI"
meas_value = 437

[[record]]
sequence_text = "AFFWAQLQSMLGNPTM"
meas_value = 138

[[record]]
sequence_text = "YFLHFLLFSRPNRVY"
meas_value = 438


(P) WFYERLVSLILRIPK
(Q) YFLHFLLFSRPEPAYI
Problem: Compare reported Rank (after) values for P and Q . Which is lower? Refer to your chosen entry by its label in the reply.
Result: Q
(Q: 114, P: 188)

----------
molecular target: MyD88^TIR (Homo sapiens); construct: MyD88 (residues 148–296); 6xHis; made in house; host or cells: E. coli BL21 (DE3); assay: T‐Surf phage library (P8 and P3) selection against MyD88^TIR, four rounds, NGS read counts; format: binding; details: P3_MyD88: rank by count after grouping
measure-name: Rank (after)

[[record]]
sequence_text = "LKVENWRQAMEKAGKL"
measure_name = "Rank (after)"
meas_value = 176


(P) DSQSSRFKDDADLVG
(Q) YYLDPSHLRKQSVEFS
Problem: Lab note: check whether P or Q shows the higher recorded Rank (after). Refer to your chosen entry by its label in the reply.
Result: Q
(Q: 473, P: 141)

(1) DTKLKKGESIAPERLP
(2) AVGKETNKIQTPLKNA
(3) THSHNAVPAAANLSGW
Problem: Order field: Rank (after) | Direction: descending (largest first) Reply with the item labels sorted in the order that was asked for.
Result: 3, 2, 1
(3: 404, 2: 177, 1: 116)

----------
Target: MyD88^TIR (Homo sapiens)
Construct: MyD88 (residues 148–296); 6xHis; made in house; host or cells: E. coli BL21 (DE3)
Assay: T‐Surf phage library (P8 and P3) selection against MyD88^TIR, four rounds, NGS read counts
Format: binding
Conditions: P8 library, 4R selection against MyD88, rank after grouping
Description: T‐Surf libraries were screened against the immobilized TIR domains of two major human TLR adaptor proteins, MAL^TIR and MyD88^TIR, allowing cross‐species selection of TIR‐binding motifs with 190 946 TIR‐derived peptides in a single binding assay (Scheme 1). Enriched phage pools from the fourth round of selection were analyzed using NGS after barcoding the peptide‐coding regions of the phage pools. […]
measure-name: P8_MyD88 Rank (after)

[[record]]
sequence_text = "DVVCDYLLPNLEGPAG"
meas_value = 606

[[record]]
sequence_text = "LGFNWMDWEYFVGIEG"
meas_value = 671

[[record]]
sequence_text = "WFLEPLEKILQAHGTT"
meas_value = 600

[[record]]
sequence_text = "FDARTWFFQEMGIIVE"
meas_value = 603

[[record]]
sequence_text = "QQISLVQLKVLEESHV"
meas_value = 648


----------
target: MyD88^TIR (Homo sapiens); construct: MyD88 (residues 148–296); 6xHis; made in house; host or cells: E. coli BL21 (DE3); experiment: T‐Surf phage library (P8 and P3) selection against MyD88^TIR, four rounds, NGS read counts; type: binding; conditions: P8 library, selection against MyD88 TIR; rank by count after grouping
measure-name: P8_MyD88 Rank (after)

[[record]]
sequence_text = "ELDGDFGRNLWDLWRL"
meas_value = 249

[[record]]
sequence_text = "HFAFSSWALDELANIL"
meas_value = 282

[[record]]
sequence_text = "YELDFSHFWLFDGHATGEA"
meas_value = 239

[[record]]
sequence_text = "AYSPWALDELVKIIEA"
meas_value = 214

[[record]]
sequence_text = "DPQDLEWFYERPVSLF"
meas_value = 259


----------
Target: MyD88^TIR (Homo sapiens)
Construct: MyD88 (residues 148–296); 6xHis; made in house; host or cells: E. coli BL21 (DE3)
Test: T‐Surf phage library (P8 and P3) selection against MyD88^TIR, four rounds, NGS read counts
Type: binding
Details: P8 library, selection against MyD88, rank before grouping
Description: T‐Surf libraries were screened against the immobilized TIR domains of two major human TLR adaptor proteins, MAL^TIR and MyD88^TIR, allowing cross‐species selection of TIR‐binding motifs with 190 946 TIR‐derived peptides in a single binding assay (Scheme 1). Enriched phage pools from the fourth round of selection were analyzed using NGS after barcoding the peptide‐coding regions of the phage pools. […]
measure-name: P8_MyD88 Rank (before)

The following sequences have reported results that may help.
[[record]]
sequence_text = "WALDELLKFCMRMKP"
meas_value = 1471

[[record]]
sequence_text = "DPQDLDWFYECPVSMF"
meas_value = 2754

[[record]]
sequence_text = "PQDLEWFYERLVTHVLLRHL"
meas_value = 3461

[[record]]
sequence_text = "DPQDLDWFYERLISRILQ"
meas_value = 2787

[[record]]
sequence_text = "YQLVFVHFWMFDGRTA"
meas_value = 2106


(I) DPQGVDLFYERQVSLL
(II) WALDELLQLQHARELF
Problem: Lab note: check whether I or II shows the higher recorded P8_MyD88 Rank (before). Refer to your chosen entry by its label in the reply.
Result: I

----------
molecular target: MAL^TIR (Homo sapiens); construct: MAL (residues 79–221); 6xHis; made in house; host or cells: E. coli BL21 (DE3); assay: T‐Surf phage library (P8 and P3) selection against MAL^TIR, four rounds, NGS read counts; assay type: binding; details: P8 library, selection against MAL, rank after grouping
measure-name: P8_MAL Rank (after)

[[record]]
sequence_text = "YFLHLLLFSRPETEYN"
measure_name = "P8_MAL Rank (after)"
meas_value = 552

[[record]]
sequence_text = "WFYERLVSMITRDTNV"
measure_name = "P8_MAL Rank (after)"
meas_value = 486

[[record]]
sequence_text = "RNFVAQLKRALANKAI"
measure_name = "P8_MAL Rank (after)"
meas_value = 499

[[record]]
sequence_text = "RKGDLISDELLIAIEE"
measure_name = "P8_MAL Rank (after)"
meas_value = 575

[[record]]
sequence_text = "TYLGNLNNALVQAGIH"
measure_name = "P8_MAL Rank (after)"
meas_value = 490

[[record]]
sequence_text = "LFFWESLKQLLRRWP"
measure_name = "P8_MAL Rank (after)"
meas_value = 563

[[record]]
sequence_text = "ELLLSVFMTLSAPRTV"
measure_name = "P8_MAL Rank (after)"
meas_value = 577

[[record]]
sequence_text = "EFVLTFVINLTPRTSF"
measure_name = "P8_MAL Rank (after)"
meas_value = 576

[[record]]
sequence_text = "WFNIRLVTVLDHVNDV"
measure_name = "P8_MAL Rank (after)"
meas_value = 573

[[record]]
sequence_text = "TFLGHLLNALVQTDIL"
measure_name = "P8_MAL Rank (after)"
meas_value = 508

[[record]]
sequence_text = "AFLCDQLSTLMDPPTF"
measure_name = "P8_MAL Rank (after)"
meas_value = 578

[[record]]
sequence_text = "AFYWAQLNSVLRDTTM"
measure_name = "P8_MAL Rank (after)"
meas_value = 492

[[record]]
sequence_text = "YFLHFLLYDHLRWLGIRAFL"
measure_name = "P8_MAL Rank (after)"
meas_value = 572

[[record]]
sequence_text = "WFYERLVSLMLRNTKV"
measure_name = "P8_MAL Rank (after)"
meas_value = 540

[[record]]
sequence_text = "WFYNHLVSLFLRDTKV"
measure_name = "P8_MAL Rank (after)"
meas_value = 520

[[record]]
sequence_text = "ELFLDQVLAVLVKPTM"
measure_name = "P8_MAL Rank (after)"
meas_value = 530

[[record]]
sequence_text = "AFLYAFLISLTHTTTF"
measure_name = "P8_MAL Rank (after)"
meas_value = 571

[[record]]
sequence_text = "AFLYTFDQSDPSDQF"
measure_name = "P8_MAL Rank (after)"
meas_value = 509

[[record]]
sequence_text = "AFLWTQLKSLLRNTTM"
measure_name = "P8_MAL Rank (after)"
meas_value = 534

[[record]]
sequence_text = "AFFWTQLSTVMGKPTM"
measure_name = "P8_MAL Rank (after)"
meas_value = 527

[[record]]
sequence_text = "AFLNTLLKNLTRPPNF"
measure_name = "P8_MAL Rank (after)"
meas_value = 562

[[record]]
sequence_text = "WFYEPLVSVILPDTKV"
measure_name = "P8_MAL Rank (after)"
meas_value = 561

[[record]]
sequence_text = "AFLWTYLSNLMHQPTF"
measure_name = "P8_MAL Rank (after)"
meas_value = 483

[[record]]
sequence_text = "LFYERLVSLILRDTRG"
measure_name = "P8_MAL Rank (after)"
meas_value = 496

[[record]]
sequence_text = "DFSHFWLFEAGGDAAI"
measure_name = "P8_MAL Rank (after)"
meas_value = 532

[[record]]
sequence_text = "AFLGEQLHTMVDKPTM"
measure_name = "P8_MAL Rank (after)"
meas_value = 491

